Documented cytotoxicity at 70.5 h across a set of compounds
# assay_notes: Human HepG2 cell viability assay in 384 well format
# Assay type: toxicity, cell-based
# Design: dose 125 nL, time 70.5 hour; concentration not given beside the values
# experimental_context: HepG2 cells, read-out: Inhibition
Give the value in % but do not write % after it.

Reference set (5 entries):
compound: Cc1nc([C@@H]2C[C@@H]3CCN(C(=O)Cc4cccc(F)c4)C[C@H]3O2)no1
cytotoxicity at 70.5 h [%]: -8
//
compound: CCc1nc(C2CCCN2C(=O)C2=COCC2)no1 (stereo unspecified)
cytotoxicity at 70.5 h [%]: 6.98
//
compound: Cc1c[nH]nc1C1CCCN(C(=O)Cn2cccn2)C1 (stereo unspecified)
cytotoxicity at 70.5 h [%]: -5.23
//
compound: c1cnc2nc(N3CCc4c(ncn4C4CC4)C3)ccc2n1
cytotoxicity at 70.5 h [%]: -6.09
//
compound: COCCCS(=O)(=O)N1CCN(c2cccc(O)c2)CC1
cytotoxicity at 70.5 h [%]: -6.99

What cytotoxicity at 70.5 h value was documented for this compound, `O=C(NC1CCCC1)c1cnn2c(-c3ccco3)ccnc12` ?
-8.37

Fill in: cytotoxicity at 70.5 h of `CCOc1ccc(CN(CCC#N)CCN2CCOCC2)cc1OC` is ___
-0.151

Suppose we examine the compound `Cn1c(C(=O)N2CCOCC2)nc2c1CCN(c1ncccn1)C2` ; what cytotoxicity at 70.5 h value has been reported?
-1.44

Can you share its cytotoxicity at 70.5 h? I mean this compound: `CS(=O)(=O)Cc1nc(CN2CCC(C(F)(F)F)CC2)cs1`
-8.36

cytotoxicity at 70.5 h lookup needed for CC(=O)N(Cc1ncc(C)o1)C1CCN(Cc2csc(C)n2)C1 (stereo unspecified) , thanks.
-1.47

Fill blank: measured cytotoxicity at 70.5 h of the compound `Cc1ccc(NC(=O)c2ccc(=O)n(CC(=O)Nc3nccs3)n2)cc1` is ____.
23.1
